Reference for the values: ChEMBL document CHEMBL1151249

Measured Activity accompanies every entry in the list below.
test system: Cryptococcus neoformans; test: Antifungal activity against Cryptococcus neoformans assessed as 99.9 % growth inhibition after 18 hrs by zone-of-inhibition assay; type: functional
MEASUREMENT_TYPE: Activity (µg/mL)

{"STRUCTURE_AS_SMILES": "CC1=CC(=O)c2c(O)cccc2C1=O", "QUANTITY_UNIT": "µg/mL", "BOUND_SIGN": "=", "OBSERVED": 40}
{"STRUCTURE_AS_SMILES": "C=C(C)[C@@H]1CC[C@]2(C)CC[C@]3(C)[C@H](CC[C@@H]4[C@@]5(C)CC[C@H](O)C(C)(C)[C@@H]5CC[C@]43C)[C@@H]12", "QUANTITY_UNIT": "µg/mL", "BOUND_SIGN": ">", "OBSERVED": 1000}
{"STRUCTURE_AS_SMILES": "COC1=CC(=O)c2c(O)cc(C)cc2C1=O", "QUANTITY_UNIT": "µg/mL", "BOUND_SIGN": "=", "OBSERVED": 200}
